Data origin: patent US20250296996A1

Molecular target: T1, P66 (rabbit ANGPTL7-his) (rabbit, UniProt G1T4P1 27-344)
T1 construct: mature; also called rabbit ANGPTL7 protein
T1 sequence: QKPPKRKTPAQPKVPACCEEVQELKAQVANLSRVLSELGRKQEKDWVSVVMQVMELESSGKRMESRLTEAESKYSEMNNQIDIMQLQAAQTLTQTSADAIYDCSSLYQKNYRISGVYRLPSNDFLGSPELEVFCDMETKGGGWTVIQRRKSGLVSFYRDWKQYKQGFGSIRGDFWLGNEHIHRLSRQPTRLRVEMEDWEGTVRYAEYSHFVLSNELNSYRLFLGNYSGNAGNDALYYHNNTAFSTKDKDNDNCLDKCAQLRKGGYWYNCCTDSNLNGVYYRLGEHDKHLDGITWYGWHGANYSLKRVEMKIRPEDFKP
Test: BLI Octet HTX; IgG on AHC sensor; P66 at 200 nM; 1:1 fit
Below is a list of entries, each paired with its recorded Kd value.
Numbers only here, please. The scale is nM.

Binder	Display Unit	Numeric Readout
ATX-P-433 (antibody, IgG1, V domains shown, Full chains (VH + hIgG1-Agly-Fc)) VH: EVQLVESGGGLVQPGRSLRLSCAASGFTFDDFAMHWVRQGPGKGLEWVSGIGWNSGSIGYADSVKGRFTISRDNAKNSLYLQMNSLRAEDTALYYCAKAPDYGDYYFDYWGQGTLVTVSS VL: DIQMTQSPSSLSASVGDRVTITCRASQSISIYLNWYQQKPGTAPKLLIYAASSLQSGVPSRFSGSGSGTDFTLTISSLQPEDFAAYYCQQSYTTPLTFGGGTKVEIKR	nM	7.02
ATX-P-425 (antibody, human IgG1, kappa, N297A, V domains shown, Full chains (VH + hIgG1-Agly-Fc)) VH: EVQLVESGGGLVKPGGSLRLSCAASGFTFSTYSMNWVRQAPGKGLEWVSSITSSSSYMFYADSVMGRFTISRDNAKNSLYLQMNSLRAEDTADYYCARDSNWGEAFDIWGQGTMVTVSS VL: DIQMTQSPSSLSASVGDRVTITCRASQGIRIDLGWFQQKPGKAPKRLIYAASSLPSGVPSRFSGSGSGTEFTLTISSLQPEDFATYYCLQHNSYPWTFGQGTKVEIKR	nM	2.38

Attention now turns to another entry.
# input For the binder shown here, ATX-P-449 (antibody, human IgG1, kappa, N297A, V domains shown, Full chains (VH + hIgG1-Agly-Fc)) VH: QVQLVESGGGVVQPGRSLRLSCAASGFAFSSYGMHWVRQAPGKGLEWVAVISYYGSNKYYADSVKGRFTISRDNSKNTLYLQMNSLRAEDTAVYHCARGITMDVWGKGTTVTVSS VL: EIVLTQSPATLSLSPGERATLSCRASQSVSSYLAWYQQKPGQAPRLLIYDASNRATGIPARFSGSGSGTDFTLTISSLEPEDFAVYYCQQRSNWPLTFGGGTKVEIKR , give the reported Kd.
# output 0.626
